testedOn: ATP-dependent translocase ABCB1 (Homo sapiens)
Sequence (P08183 whole entry): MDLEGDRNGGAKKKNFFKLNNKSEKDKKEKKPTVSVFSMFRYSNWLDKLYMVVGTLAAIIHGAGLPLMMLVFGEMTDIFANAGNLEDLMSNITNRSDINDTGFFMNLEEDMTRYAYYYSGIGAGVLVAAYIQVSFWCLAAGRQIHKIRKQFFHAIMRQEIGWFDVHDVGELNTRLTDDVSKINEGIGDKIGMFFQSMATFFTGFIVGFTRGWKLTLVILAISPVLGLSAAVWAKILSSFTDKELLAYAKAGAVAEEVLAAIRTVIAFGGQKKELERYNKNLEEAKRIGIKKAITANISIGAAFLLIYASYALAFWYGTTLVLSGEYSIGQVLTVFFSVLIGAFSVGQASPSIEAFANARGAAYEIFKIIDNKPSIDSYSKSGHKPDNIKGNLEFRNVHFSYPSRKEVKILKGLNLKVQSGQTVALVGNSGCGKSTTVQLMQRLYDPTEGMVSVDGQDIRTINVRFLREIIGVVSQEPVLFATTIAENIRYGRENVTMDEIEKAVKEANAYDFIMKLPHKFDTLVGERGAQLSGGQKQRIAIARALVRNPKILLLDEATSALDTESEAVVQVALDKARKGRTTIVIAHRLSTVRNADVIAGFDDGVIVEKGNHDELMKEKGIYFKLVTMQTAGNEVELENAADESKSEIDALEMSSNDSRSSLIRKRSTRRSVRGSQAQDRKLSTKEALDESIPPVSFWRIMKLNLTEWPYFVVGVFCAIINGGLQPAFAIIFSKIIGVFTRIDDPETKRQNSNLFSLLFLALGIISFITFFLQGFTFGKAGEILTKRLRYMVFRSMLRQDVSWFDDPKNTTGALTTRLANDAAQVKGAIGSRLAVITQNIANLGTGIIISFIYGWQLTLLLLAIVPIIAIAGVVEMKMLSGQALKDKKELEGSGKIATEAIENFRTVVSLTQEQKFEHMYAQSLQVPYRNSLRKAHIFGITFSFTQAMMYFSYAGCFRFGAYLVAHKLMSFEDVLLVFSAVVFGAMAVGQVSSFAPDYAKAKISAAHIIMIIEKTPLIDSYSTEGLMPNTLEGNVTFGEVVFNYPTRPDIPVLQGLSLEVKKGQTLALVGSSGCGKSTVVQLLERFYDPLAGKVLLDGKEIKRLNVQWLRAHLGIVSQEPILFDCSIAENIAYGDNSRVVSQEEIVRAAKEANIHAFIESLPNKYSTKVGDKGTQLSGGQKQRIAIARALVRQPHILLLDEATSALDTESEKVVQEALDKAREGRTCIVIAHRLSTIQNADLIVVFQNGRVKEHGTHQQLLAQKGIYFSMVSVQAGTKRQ
procedureSummary: Modulation of Pgp (P-glycoprotein) mediated multidrug resistance in CEM / VLB 1000 cell line
testParameters: read-out: ED50 (the source's name)
pEC50: −log10 of the molar value.
experimentalReadout: pEC50

{"structureSmilesString": "CCOC/C=C/c1ccc(-c2nc(-c3ccc(N(C)C)cc3)c(-c3ccc(N(C)C)cc3)[nH]2)cc1", "pEC50": 7.10}
{"structureSmilesString": "CNc1ccc(-c2[nH]c(-c3ccc(/C=C/C(=O)OC)cc3)nc2-c2ccc(NC(C)C)cc2)cc1", "pEC50": 6.92}
{"structureSmilesString": "CNc1ccc(-c2[nH]c(-c3ccc(/C=C/CCOC)cc3)nc2-c2ccc(N(C)C)cc2)cc1", "pEC50": 6.96}

A: CCOC/C=C/c1ccc(-c2nc(-c3ccc(F)cc3)c(-c3ccc(NC(C)C)cc3)[nH]2)cc1
B: CCN(CC)c1ccc(-c2[nH]c(-c3ccc(/C=C/C(=O)OC)cc3)nc2-c2ccc(NC)cc2)cc1
input: Given the listed records, identify the one among A and B with higher pEC50. Mark your answer with the label of the selected entry.
output: B
(B: 7.15, A: 6.80)
